pIC50 for assorted molecules
Target Or System: Amyloid-beta precursor protein (Homo sapiens, UniProt P05067)
Sequence (P05067 whole entry): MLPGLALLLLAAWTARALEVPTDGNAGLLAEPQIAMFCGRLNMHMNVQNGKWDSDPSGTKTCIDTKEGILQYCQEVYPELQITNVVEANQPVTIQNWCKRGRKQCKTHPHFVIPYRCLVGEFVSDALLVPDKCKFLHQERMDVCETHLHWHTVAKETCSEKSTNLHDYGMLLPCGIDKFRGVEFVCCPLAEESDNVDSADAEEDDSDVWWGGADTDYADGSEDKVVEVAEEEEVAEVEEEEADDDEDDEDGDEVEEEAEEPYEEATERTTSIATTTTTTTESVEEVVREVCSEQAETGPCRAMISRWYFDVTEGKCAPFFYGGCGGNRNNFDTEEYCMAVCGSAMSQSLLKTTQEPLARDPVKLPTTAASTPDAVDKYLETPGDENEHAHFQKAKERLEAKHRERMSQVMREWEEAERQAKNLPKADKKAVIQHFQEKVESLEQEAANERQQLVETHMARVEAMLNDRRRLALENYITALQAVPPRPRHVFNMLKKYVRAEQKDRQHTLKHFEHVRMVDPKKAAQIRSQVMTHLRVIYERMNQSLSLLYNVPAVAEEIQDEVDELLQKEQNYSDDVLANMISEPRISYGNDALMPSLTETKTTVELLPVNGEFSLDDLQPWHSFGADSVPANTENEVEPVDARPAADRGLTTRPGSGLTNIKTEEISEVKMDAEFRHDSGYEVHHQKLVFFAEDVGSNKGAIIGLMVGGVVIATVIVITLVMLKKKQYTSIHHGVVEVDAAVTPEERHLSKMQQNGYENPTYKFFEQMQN
Protocol Summary: Inhibition of human amyloid beta (1 to 40) aggregation after 24 hrs by ThT fluorescence assay
Convention used: pIC50 is expressed as -log10 of the molar concentration.

- Molecule: "CC(C)=CCC/C(C)=C/CC/C(C)=C/Cc1c(C)cc(O)c(O)c1O"
  Parameter Measured: "pIC50"
  Val: 4.78
- Molecule: "CCCCCCCCCCCCCCC[C@@H](O)C(=O)N[C@@H](CO[C@@H]1O[C@H](CO)[C@@H](O)[C@H](O)[C@H]1O)[C@H](O)/C=C/CC/C=C(\\C)CCCCCCCCC [CEREBROSIDE]"
  Parameter Measured: "pIC50"
  Val: 4.20
- Molecule: "COc1c(O)c(O)c(-c2c(C)c(C/C=C(\\C)CC/C=C(\\C)CCC=C(C)C)c(OC)c(O)c2O)c(C)c1C/C=C(\\C)CC/C=C(\\C)CCC=C(C)C"
  Parameter Measured: "pIC50"
  Val: 4.91
- Molecule: "CC(C)=CCC/C(C)=C/CC[C@@]1(C)C=Cc2c(cc(C)c(C(=O)O)c2O)O1"
  Parameter Measured: "pIC50"
  Val: 4.61
- Molecule: "CC(C)=CC(=O)C/C(C)=C/CC/C(C)=C/Cc1c(O)cc(C)c(C(=O)O)c1O"
  Parameter Measured: "pIC50"
  Val: 3.82

Given the entry CC(C)=CCC/C(C)=C/CC/C(C)=C/Cc1c(O)cc(C)c(C(=O)O)c1O , report its measured pIC50.
4.69

----------
Target Or System: Amyloid-beta precursor protein (Homo sapiens, UniProt P05067)
Protocol Summary: Inhibition of human amyloid beta (1 to 40) aggregation after 24 hrs by ThT fluorescence assay
Parameter Measured: IC50 (µM)
Provide only the numeric value, understood in µM.

Given the entry CC(C)=CCC/C(C)=C/CCC1(C)C=Cc2c(O)cc(C)cc2O1 (stereo not given) , report its measured IC50.
68

Given the entry CC(C)=CCC/C(C)=C/CC/C(C)=C/Cc1c(O)cc(C)cc1O , report its measured IC50.
149

Given the entry COC(=O)c1c(C)cc(O)c(C/C=C(\C)CC/C=C(\C)CCC=C(C)C)c1O , report its measured IC50.
221

Given the entry COc1c(O)c(O)cc(C)c1C/C=C(\C)CC/C=C(\C)CCC=C(C)C , report its measured IC50.
29.3

Given the entry CC(C)=CCC/C(C)=C/CC/C(C)=C/Cc1c(C)cc(O)cc1O , report its measured IC50.
19.9
